Assay: Pharmacokinetic profile in rats
Assay type: in vivo
Settings: rat, plasma; fasted male Sprague-Dawley rats; oral 2 mg/kg / i.v. 1 mg/kg study, route of the value not given
readout name: Cmax

Task: Give its Cmax value. Item: C=CC(=O)N1CCCC(c2c(Cl)c(-c3ccc(Oc4cccc(Cl)c4)c(OC)c3)c3c(N)ncnn23)C1 (stereo not shown)
Result: 227 ng/mL

###

Below are compounds with their pIC50 as measured on Btk (Homo sapiens).
Sequence (Q06187 whole entry): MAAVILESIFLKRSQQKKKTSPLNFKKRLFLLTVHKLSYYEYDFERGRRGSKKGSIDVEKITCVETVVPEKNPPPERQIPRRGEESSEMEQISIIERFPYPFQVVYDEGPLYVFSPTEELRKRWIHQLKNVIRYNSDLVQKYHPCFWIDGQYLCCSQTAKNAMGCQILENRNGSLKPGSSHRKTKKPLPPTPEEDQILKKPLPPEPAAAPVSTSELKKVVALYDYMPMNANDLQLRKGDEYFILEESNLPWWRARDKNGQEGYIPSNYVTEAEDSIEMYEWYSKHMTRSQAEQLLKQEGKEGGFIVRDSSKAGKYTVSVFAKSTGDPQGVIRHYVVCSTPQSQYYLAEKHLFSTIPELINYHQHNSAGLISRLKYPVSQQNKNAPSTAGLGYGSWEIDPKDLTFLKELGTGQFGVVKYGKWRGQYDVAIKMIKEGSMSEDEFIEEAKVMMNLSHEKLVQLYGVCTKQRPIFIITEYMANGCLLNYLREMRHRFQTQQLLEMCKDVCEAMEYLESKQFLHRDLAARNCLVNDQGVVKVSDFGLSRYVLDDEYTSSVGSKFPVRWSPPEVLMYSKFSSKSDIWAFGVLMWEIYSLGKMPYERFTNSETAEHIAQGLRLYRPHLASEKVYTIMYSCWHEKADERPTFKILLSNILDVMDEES
Remember, pIC50 is on a log scale: it is -log10 of the molar concentration.

Task: Give its pIC50 value. Item: COc1cccc(-c2c(CCCN(C)C)c(-c3ccc(Oc4ccccc4)cc3)c3c(N)ncnn23)c1 [Example 16(1)]
Result: 8.24

Task: Give its pIC50 value. Item: COc1cc(-c2c(C3CCNCC3)c(C3CCCC3)n3ncnc(N)c23)ccc1Oc1ccc(Cl)c(Cl)c1 [Example 25(1)]
Result: 7.21

Task: Give its pIC50 value. Item: C=CC(=O)N1CCCC(c2c(Cl)c(-c3ccc(Oc4ccc(Cl)c(Cl)c4)c(OC)c3)c3c(N)ncnn23)C1 (stereo not shown) [Example 32(1)]
Result: 8.70

Task: Give its pIC50 value. Item: COc1cccc(-c2c(CCCN3CCCC3)c(-c3ccc(Oc4ccc(Cl)c(Cl)c4)c(OC)c3)c3c(N)ncnn23)c1 [Example 16(3)]
Result: 7.92
